test system: Human immunodeficiency virus 1; assay: Antiviral activity against HIV1 Ba-L infected in HOS cells assessed as inhibition of viral infection; type: functional, organism-based; details: Human immunodeficiency virus 1, Ba-L
Below is a list of entries, each paired with its recorded log10 of IC50 value.
Readout label: log10 of IC50 (log10 of the value in µM)

INSERT INTO results (mol_smiles, target_under_test, readout_label, endpoint_value) VALUES
  ('Cc1nc2ccccc2n1[C@H]1C[C@H]2CC[C@@H](C1)N2CC[C@]1(c2ccccc2)CC[C@H](NC(=O)c2ccc(S(N)(=O)=O)cc2Cl)CC1', 'Human immunodeficiency virus 1', 'log10 of IC50', -0.64),
  ('Cc1ccnc(C)c1C(=O)N[C@H]1CC[C@](CCCN2[C@@H]3CC[C@H]2C[C@@H](n2c(C)nc4ccccc42)C3)(c2ccccc2)CC1', 'Human immunodeficiency virus 1', 'log10 of IC50', 0.34),
  ('Cc1nc2ccccc2n1[C@H]1C[C@H]2CC[C@@H](C1)N2CC[C@]1(c2ccccc2)CC[C@H](NC(=O)c2ccc(F)c(S(N)(=O)=O)c2)CC1', 'Human immunodeficiency virus 1', 'log10 of IC50', -0.32),
  ('Cc1nc2ccccc2n1[C@H]1C[C@H]2CC[C@@H](C1)N2CC[C@]1(c2ccccc2)CC[C@H](NC(=O)c2cc(S(=O)(=O)NC(C)C)c(Cl)cc2F)CC1', 'Human immunodeficiency virus 1', 'log10 of IC50', -0.23),
  ('Cc1nc2ccccc2n1[C@H]1C[C@H]2CC[C@@H](C1)N2CCC[C@]1(c2ccccc2)CC[C@H](NC(=O)c2ccc(Cl)c(S(N)(=O)=O)c2)CC1', 'Human immunodeficiency virus 1', 'log10 of IC50', -0.42),
  ('Cc1nc2ccccc2n1[C@H]1C[C@H]2CC[C@@H](C1)N2CC[C@]1(c2ccccc2)CC[C@H](NC(=O)c2ccc(Cl)c(S(N)(=O)=O)c2)CC1', 'Human immunodeficiency virus 1', 'log10 of IC50', -1.24),
  ('Cc1nc2ccccc2n1[C@H]1C[C@H]2CC[C@@H](C1)N2CC[C@]1(c2ccccc2)CC[C@@H](NC(=O)c2ccc(Cl)c(S(N)(=O)=O)c2)CC1', 'Human immunodeficiency virus 1', 'log10 of IC50', 0.21),
  ('Cc1ccc(S(N)(=O)=O)c(C)c1C(=O)N[C@H]1CC[C@](CCN2[C@@H]3CC[C@H]2C[C@@H](n2c(C)nc4ccccc42)C3)(c2ccccc2)CC1', 'Human immunodeficiency virus 1', 'log10 of IC50', 0.03),
  ('Cc1nc2ccccc2n1[C@H]1C[C@H]2CC[C@@H](C1)N2CC[C@]1(c2ccccc2)CC[C@H](NC(=O)c2ccc(S(N)(=O)=O)cc2F)CC1', 'Human immunodeficiency virus 1', 'log10 of IC50', 0.26),
  ('Cc1nc2ccccc2n1[C@H]1C[C@H]2CC[C@@H](C1)N2[C@]1(C)CC[C@H](NC(=O)c2ccc(Cl)c(S(N)(=O)=O)c2)CC1', 'Human immunodeficiency virus 1', 'log10 of IC50', -0.06),
  ('Cc1ccc(S(N)(=O)=O)c(C)c1C(=O)N[C@H]1CC[C@@](CCN2[C@@H]3CC[C@H]2C[C@@H](n2c(C)nc4ccccc42)C3)(c2ccccc2)CC1', 'Human immunodeficiency virus 1', 'log10 of IC50', 0.41),
  ('CNS(=O)(=O)c1cc(Cl)c(C(=O)N[C@H]2CC[C@](CCN3[C@@H]4CC[C@H]3C[C@@H](n3c(C)nc5ccccc53)C4)(c3ccccc3)CC2)cc1F', 'Human immunodeficiency virus 1', 'log10 of IC50', -0.29),
  ('Cc1nc2ccccc2n1[C@H]1C[C@H]2CC[C@@H](C1)N2CC[C@]1(c2ccccc2)CC[C@H](NC(=O)c2cc(NS(C)(=O)=O)c(Cl)cc2F)CC1', 'Human immunodeficiency virus 1', 'log10 of IC50', 0.17),
  ('Cc1nc2ccccc2n1[C@H]1C[C@H]2CC[C@@H](C1)N2[C@]1(C)CC[C@H](NC(=O)c2c(Cl)ccc(S(N)(=O)=O)c2Cl)CC1', 'Human immunodeficiency virus 1', 'log10 of IC50', 1.30);
